system: Mycobacterium tuberculosis Erdman (autoluminescent); assay: AUC25, normalised area under dose response up to IC25 (three-drug combination) (fraction (0-1)); higher = more potent at low dose; details: in vitro model: cholesterol-high 0.2 mM; time point: terminal (~4-5 doublings, model-specific)
# AUC25 listing for each entry below
reported.metric: AUC25

[[record]]
molecule = "CC[C@@H](CO)NCCN[C@@H](CC)CO [ethambutol] + CO[C@H]1/C=C/O[C@@]2(C)Oc3c(C)c(O)c4c(O)c(c(/C=N/N5CCN(C6CCCC6)CC5)c(O)c4c3C2=O)NC(=O)/C(C)=C\\C=C\\[C@H](C)[C@H](O)[C@@H](C)[C@@H](O)[C@@H](C)[C@H](OC(C)=O)[C@@H]1C [rifapentine] + CO[C@H]1/C=C/O[C@@]2(C)Oc3c(C)c(O)c4c(O)c(c(/C=N/N5CCN(C)CC5)c(O)c4c3C2=O)NC(=O)/C(C)=C\\C=C\\[C@H](C)[C@H](O)[C@@H](C)[C@@H](O)[C@@H](C)[C@H](OC(C)=O)[C@@H]1C [rifampicin]"
study_system = "Mycobacterium tuberculosis Erdman (autoluminescent)"
reported_metric = "AUC25"
reported = 0.0471

[[record]]
molecule = "CC[C@@H](CO)NCCN[C@@H](CC)CO [ethambutol] + CC(=O)NC[C@H]1CN(c2ccc(N3CCOCC3)c(F)c2)C(=O)O1 [linezolid] + NC(=O)c1cnccn1 [pyrazinamide]"
study_system = "Mycobacterium tuberculosis Erdman (autoluminescent)"
reported_metric = "AUC25"
reported = 0.11

[[record]]
molecule = "CC[C@@H](CO)NCCN[C@@H](CC)CO [ethambutol] + O=[N+]([O-])c1cn2c(n1)OC[C@@H](OCc1ccc(OC(F)(F)F)cc1)C2 [pretomanid] + CO[C@H]1/C=C/O[C@@]2(C)Oc3c(C)c(O)c4c(O)c(c(/C=N/N5CCN(C6CCCC6)CC5)c(O)c4c3C2=O)NC(=O)/C(C)=C\\C=C\\[C@H](C)[C@H](O)[C@@H](C)[C@@H](O)[C@@H](C)[C@H](OC(C)=O)[C@@H]1C [rifapentine]"
study_system = "Mycobacterium tuberculosis Erdman (autoluminescent)"
reported_metric = "AUC25"
reported = 0.0353


###

test system: Mycobacterium tuberculosis Erdman (autoluminescent); assay: GRinf, maximum normalised growth rate inhibition (unitless (-1 to 1)); higher = less effect (negative = killing); conditions: in vitro model: acidic pH 5.7; time point: constant (~7 days, model-specific)
reported.metric: GRinf

[[record]]
compound = "COc1nc2ccc(Br)cc2cc1[C@@H](c1ccccc1)[C@@](O)(CCN(C)C)c1cccc2ccccc12 [bedaquiline] + NC(=O)c1cnccn1 [pyrazinamide]"
study_system = "Mycobacterium tuberculosis Erdman (autoluminescent)"
reported = -0.398

[[record]]
compound = "CC[C@@H](CO)NCCN[C@@H](CC)CO [ethambutol] + COc1c(N2C[C@@H]3CCCN[C@@H]3C2)c(F)cc2c(=O)c(C(=O)O)cn(C3CC3)c12 [moxifloxacin]"
study_system = "Mycobacterium tuberculosis Erdman (autoluminescent)"
reported = -0.475

[[record]]
compound = "COc1nc2ccc(Br)cc2cc1[C@@H](c1ccccc1)[C@@](O)(CCN(C)C)c1cccc2ccccc12 [bedaquiline] + NNC(=O)c1ccncc1 [isoniazid]"
study_system = "Mycobacterium tuberculosis Erdman (autoluminescent)"
reported = -0.331


###

test system: Mycobacterium tuberculosis Erdman (autoluminescent); experiment: AUC25, normalised area under dose response up to IC25 (fraction (0-1)); higher = more potent at low dose; settings: in vitro model: cholesterol 0.05 mM; time point: terminal (~4-5 doublings, model-specific)
Quick reference for AUC25 among some molecules
reported.metric: AUC25

[[record]]
molecule = "CC(=O)NC[C@H]1CN(c2ccc(N3CCOCC3)c(F)c2)C(=O)O1 [linezolid] + NC(=O)c1cnccn1 [pyrazinamide]"
reported = 0.141

[[record]]
molecule = "CC[C@@H](CO)NCCN[C@@H](CC)CO [ethambutol] + COc1c(N2C[C@@H]3CCCN[C@@H]3C2)c(F)cc2c(=O)c(C(=O)O)cn(C3CC3)c12 [moxifloxacin]"
reported = 0.0944

[[record]]
molecule = "CC(C)/N=c1\\cc2n(-c3ccc(Cl)cc3)c3ccccc3nc-2cc1Nc1ccc(Cl)cc1 [clofazimine] + CC[C@@H](CO)NCCN[C@@H](CC)CO [ethambutol]"
reported = 0.137

[[record]]
molecule = "NNC(=O)c1ccncc1 [isoniazid] + NC(=O)c1cnccn1 [pyrazinamide]"
reported = 0.119

[[record]]
molecule = "COc1c(N2C[C@@H]3CCCN[C@@H]3C2)c(F)cc2c(=O)c(C(=O)O)cn(C3CC3)c12 [moxifloxacin] + O=[N+]([O-])c1cn2c(n1)OC[C@@H](OCc1ccc(OC(F)(F)F)cc1)C2 [pretomanid]"
reported = 0.105

[[record]]
molecule = "CC[C@@H](CO)NCCN[C@@H](CC)CO [ethambutol] + NNC(=O)c1ccncc1 [isoniazid]"
reported = 0.0491

[[record]]
molecule = "CO[C@H]1/C=C/O[C@@]2(C)Oc3c(C)c(O)c4c(O)c(c(/C=N/N5CCN(C6CCCC6)CC5)c(O)c4c3C2=O)NC(=O)/C(C)=C\\C=C\\[C@H](C)[C@H](O)[C@@H](C)[C@@H](O)[C@@H](C)[C@H](OC(C)=O)[C@@H]1C [rifapentine] + CO[C@H]1/C=C/O[C@@]2(C)Oc3c(C)c(O)c4c(O)c(c(/C=N/N5CCN(C)CC5)c(O)c4c3C2=O)NC(=O)/C(C)=C\\C=C\\[C@H](C)[C@H](O)[C@@H](C)[C@@H](O)[C@@H](C)[C@H](OC(C)=O)[C@@H]1C [rifampicin]"
reported = 0.085

[[record]]
molecule = "CC(C)/N=c1\\cc2n(-c3ccc(Cl)cc3)c3ccccc3nc-2cc1Nc1ccc(Cl)cc1 [clofazimine] + NC(=O)c1cnccn1 [pyrazinamide]"
reported = 0.143

[[record]]
molecule = "CC(C)/N=c1\\cc2n(-c3ccc(Cl)cc3)c3ccccc3nc-2cc1Nc1ccc(Cl)cc1 [clofazimine] + CO[C@H]1/C=C/O[C@@]2(C)Oc3c(C)c(O)c4c(O)c(c(/C=N/N5CCN(C)CC5)c(O)c4c3C2=O)NC(=O)/C(C)=C\\C=C\\[C@H](C)[C@H](O)[C@@H](C)[C@@H](O)[C@@H](C)[C@H](OC(C)=O)[C@@H]1C [rifampicin]"
reported = 0.0926


###

Item-by-item account of Einf
tested on: Mycobacterium tuberculosis Erdman (autoluminescent); assay: Einf, fitted maximum growth inhibition of combination (fraction); higher = stronger maximal inhibition; conditions: in vitro model: cholesterol 0.05 mM; time point: terminal (~4-5 doublings, model-specific)
reported.metric: Einf

[[record]]
compound = "CC(C)/N=c1\\cc2n(-c3ccc(Cl)cc3)c3ccccc3nc-2cc1Nc1ccc(Cl)cc1 [clofazimine] + NNC(=O)c1ccncc1 [isoniazid]"
reported_metric = "Einf"
reported = 0.928

[[record]]
compound = "NNC(=O)c1ccncc1 [isoniazid] + CO[C@H]1/C=C/O[C@@]2(C)Oc3c(C)c(O)c4c(O)c(c(/C=N/N5CCN(C6CCCC6)CC5)c(O)c4c3C2=O)NC(=O)/C(C)=C\\C=C\\[C@H](C)[C@H](O)[C@@H](C)[C@@H](O)[C@@H](C)[C@H](OC(C)=O)[C@@H]1C [rifapentine]"
reported_metric = "Einf"
reported = 0.917

[[record]]
compound = "COc1nc2ccc(Br)cc2cc1[C@@H](c1ccccc1)[C@@](O)(CCN(C)C)c1cccc2ccccc12 [bedaquiline] + CC(=O)NC[C@H]1CN(c2ccc(N3CCOCC3)c(F)c2)C(=O)O1 [linezolid]"
reported_metric = "Einf"
reported = 0.945


###

Reported total FIC50 is given for each of the following molecules.
system: Mycobacterium tuberculosis Erdman (autoluminescent); assay: total FIC50 (Loewe) at 50% inhibition, three-drug combination (log2); higher = more antagonistic; conditions: in vitro model: acidic pH 5.7; time point: constant (~7 days, model-specific)
reported.metric: total FIC50

[[record]]
molecule = "COc1nc2ccc(Br)cc2cc1[C@@H](c1ccccc1)[C@@](O)(CCN(C)C)c1cccc2ccccc12 [bedaquiline] + NNC(=O)c1ccncc1 [isoniazid] + NC(=O)c1cnccn1 [pyrazinamide]"
reported_metric = "total FIC50"
reported = 0.0123

[[record]]
molecule = "COc1nc2ccc(Br)cc2cc1[C@@H](c1ccccc1)[C@@](O)(CCN(C)C)c1cccc2ccccc12 [bedaquiline] + CC(C)/N=c1\\cc2n(-c3ccc(Cl)cc3)c3ccccc3nc-2cc1Nc1ccc(Cl)cc1 [clofazimine] + NC(=O)c1cnccn1 [pyrazinamide]"
reported_metric = "total FIC50"
reported = 0.0846

[[record]]
molecule = "COc1nc2ccc(Br)cc2cc1[C@@H](c1ccccc1)[C@@](O)(CCN(C)C)c1cccc2ccccc12 [bedaquiline] + CC(=O)NC[C@H]1CN(c2ccc(N3CCOCC3)c(F)c2)C(=O)O1 [linezolid] + O=[N+]([O-])c1cn2c(n1)OC[C@@H](OCc1ccc(OC(F)(F)F)cc1)C2 [pretomanid]"
reported_metric = "total FIC50"
reported = 0.414

[[record]]
molecule = "COc1c(N2C[C@@H]3CCCN[C@@H]3C2)c(F)cc2c(=O)c(C(=O)O)cn(C3CC3)c12 [moxifloxacin] + NC(=O)c1cnccn1 [pyrazinamide] + CO[C@H]1/C=C/O[C@@]2(C)Oc3c(C)c(O)c4c(O)c(c(/C=N/N5CCN(C)CC5)c(O)c4c3C2=O)NC(=O)/C(C)=C\\C=C\\[C@H](C)[C@H](O)[C@@H](C)[C@@H](O)[C@@H](C)[C@H](OC(C)=O)[C@@H]1C [rifampicin]"
reported_metric = "total FIC50"
reported = 0.177


Where do the numbers come from? From the supplement of paper PMC8617591.
